Assay: solvent given as SMILES
Details: in ClC(Cl)Cl
measurement.type: emission maximum (nm)

CCC1=C(C)C(=O)n2c1cc1c(C)c(CC(=O)O)c(C)n1c2=O	485
COc1ccc(C2CC(=O)Oc3c2c2nc4ccccc4nc2c2ccccc32)cc1 (stereo not given)	449
COc1ccc(-c2nc3ccccc3nc2-c2ccc(OC)cc2)cc1	430
CN1C(=O)c2cccc3c(-n4c5ccccc5c5ccccc54)ccc(c23)C1=O	489
N#Cc1ccc2cc(C#N)c3ccc4ccccc4c3c2c1	420
c1ccc(-c2nc(-c3ccc(N4CCCC4)cc3)cc(-c3ccc4ccccc4c3)n2)cc1	498

P. CC(C)(C)c1ccc2oc3nc4oc5ccc(N(c6ccccc6)c6ccccc6)cc5c4cc3c2c1
Q. CC[N+](CC)=c1ccc2c(-c3ccccc3C(=O)O)c3c(=O)oc4c5c6c(cc4c3oc-2c1)CCCN6CCC5
Request: // which entry reports the smaller emission maximum, P or Q ? Identify your pick by its label.
Response: P

----------
Experiment: solvent given as SMILES
Settings: in C1CCOC1
Listing: emission maximum of selected compounds
Provide the reading as a plain figure in nm.

Guide cases for emission maximum, answers given:
CC1(C)c2cc(C#N)ccc2-c2ccc(N3c4ccccc4Oc4ccccc43)cc21	550
CCCCCCCCN1c2ccccc2Sc2cc(/C=C/c3ccc(N(c4ccc(/C=C/c5ccc6c(c5)Sc5ccccc5N6CCCCCCCC)cc4)c4ccc(/C=C/c5ccc(/C=C/c6ccc(N(c7ccc(/C=C/c8ccc9c(c8)Sc8ccccc8N9CCCCCCCC)cc7)c7ccc(/C=C/c8ccc9c(c8)Sc8ccccc8N9CCCCCCCC)cc7)cc6)c6nsnc56)cc4)cc3)ccc21	654
CCC1(CC)c2cc(B(c3c(C)cc(C)cc3C)c3c(C)cc(C)cc3C)ccc2-c2c1c1c(c3c2C(CC)(CC)c2cc(B(c4c(C)cc(C)cc4C)c4c(C)cc(C)cc4C)ccc2-3)C(CC)(CC)c2cc(B(c3c(C)cc(C)cc3C)c3c(C)cc(C)cc3C)ccc2-1	386
c1ccc(-c2nc(-c3ccccc3)nc(-c3ccc(-n4c5ccccc5c5cc(-n6c7ccccc7c7ccccc76)ccc54)c4c5ccccc5n(-c5ccccc5)c34)n2)cc1	496.59

Now take the following compound into account.
"C(=C(c1ccccc1)c1ccccc1)c1ccc(-c2ccc(-c3nc4c5ccccc5c5ccccc5c4n3-c3cccc(-c4ccc(C=C(c5ccccc5)c5ccccc5)cc4)c3)cc2)cc1" yielded emission maximum of 449

----------
Experiment: solvent given as SMILES
Details: in ClCCl
measurement.type: emission maximum (nm)

Guide cases for emission maximum, answers given:
FC(F)(F)c1c(-n2c3ccccc3c3ccccc32)c(-n2c3ccccc3c3ccccc32)cc(-n2c3ccccc3c3ccccc32)c1-n1c2ccccc2c2ccccc21	440
CC[N+](CC)=c1ccc2c(-c3ccccc3C(=O)O)c3oc4cc(N)ccc4c3oc-2c1	617
Cc1cc(C)c(C2=C3C=C(/C=C/C(=O)OCc4ccccc4)C=[N+]3[B-](F)(F)n3cccc32)c(C)c1	568
Cc1cc(C)c(B(c2c(C)cc(C)cc2C)N2c3ccccc3C(C)(C)c3ccccc32)c(C)c1	580
CCCN1/C(=C\c2c(-c3ccc(N(C)C)cc3)c(=O)c2=O)C=Cc2ccccc21	585

P. Nc1cccc2c1ccc1[n+]2[B-](F)(F)n2c-1cc1c3ccccc3c3ccccc3c12
Q. c1ccc(-n2c3ccccc3c3cc(-c4cccc(-n5c6cccnc6c6c7sc8ccccc8c7ccc65)c4)ccc32)cc1
Request: Could you please tell me which of these two has the higher emission maximum: P or Q ? Identify your pick by its label.
Response: P
(P: 580 nm, Q: 384 nm)

Reference for the values: the Deep4Chem optical property database
